Data origin, for the record: PubChem BioAssay AID1918933

Tested on: 186277-243-T-J2-PDC complex spheroid viability
Assay: Anticancer human tumor 186277-243-T-J2-PDC patient-derived colon adenocarcinoma cell line growth inhibition; active = viability on the fitted dose curve at most 10% of control; inactive = the rest
Details: second compound 3.16 µM; first compound 0.1 µM
Possible outcomes: 1 (active), 0 (inactive)

| compound | labelClass |
| --- | --- |
| CC1(C)CCC(CN2CCN(c3ccc(C(=O)NS(=O)(=O)c4ccc(NCC5CCOCC5)c([N+](=O)[O-])c4)c(Oc4cnc5[nH]ccc5c4)c3)CC2)=C(c2ccc(Cl)cc2)C1 + NC1CC1c1ccc(-c2cccc(O)c2)cc1 | 0 |
| CC1COCCN1c1cc(C2(S(C)(=N)=O)CC2)nc(-c2ccnc3[nH]ccc23)n1 (stereo not drawn) + NC1CC1c1ccc(-c2cccc(O)c2)cc1 | 0 |
| Nc1ncn(C2CC(O)C(CO)O2)c(=O)n1 (stereo not drawn) + NC1CC1c1ccc(-c2cccc(O)c2)cc1 | 0 |
| CC(C)CC(NC(=O)CNC(=O)c1cc(Cl)ccc1Cl)B1OC(=O)CC(CC(=O)O)(C(=O)O)O1 (stereo not drawn) + NC1CCC(NC2CC2c2ccccc2)CC1 | 1 |
| CC1(C)CCC(CN2CCN(c3ccc(C(=O)NS(=O)(=O)c4ccc(NCC5CCOCC5)c([N+](=O)[O-])c4)c(Oc4cnc5[nH]ccc5c4)c3)CC2)=C(c2ccc(Cl)cc2)C1 + NC1CCC(NC2CC2c2ccccc2)CC1 | 0 |
| CC(C)CC(NC(=O)CNC(=O)c1cc(Cl)ccc1Cl)B1OC(=O)CC(CC(=O)O)(C(=O)O)O1 (stereo not drawn) + NC1CC1c1ccc(-c2cccc(O)c2)cc1 | 1 |
| CC(C)c1c(-c2ccccc2)nc2c(C#N)c[nH]n2c1=O + NC1CCC(NC2CC2c2ccccc2)CC1 | 0 |
| COc1cc(Nc2ncc3c(n2)-c2ccc(Cl)cc2C(c2c(F)cccc2OC)=NC3)ccc1C(=O)O + NC1CCC(NC2CC2c2ccccc2)CC1 | 1 |
| CC[C@@]1(O)C(=O)OCc2c1cc1n(c2=O)Cc2cc3c(CN(C)C)c(O)ccc3nc2-1 + NC1CC1c1ccc(-c2cccc(O)c2)cc1 | 0 |
| CC(C)CC(NC(=O)C(Cc1ccccc1)NC(=O)c1cnccn1)B(O)O (stereo not drawn) + NC1CC1c1ccc(-c2cccc(O)c2)cc1 | 1 |
| O=C(c1cc(Cc2n[nH]c(=O)c3ccccc23)ccc1F)N1CCN(C(=O)C2CC2)CC1 + NC1CCC(NC2CC2c2ccccc2)CC1 | 0 |
| CC1COCCN1c1cc(C2(S(C)(=N)=O)CC2)nc(-c2ccnc3[nH]ccc23)n1 (stereo not drawn) + NC1CCC(NC2CC2c2ccccc2)CC1 | 0 |
| CC1COCCN1c1cc(-c2ccnn2C)c2ccnc(-c3ccn[nH]3)c2n1 (stereo not drawn) + NC1CC1c1ccc(-c2cccc(O)c2)cc1 | 1 |

---

Test system: 186277-243-T-J2-PDC complex spheroid viability
Experiment: Anticancer human tumor 186277-243-T-J2-PDC cell line growth inhibition; active means viability on the fitted dose curve at most 10% of control; inactive means the rest;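 note: 7 day exposure to compounds; 100% = DMSO vehicle control viability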
Settings: second compound 1 µM; first compound 10 µM
Possible outcomes: label 1 = active, label 0 = inactive

| molecule | labelClass |
| --- | --- |
| COc1ccc([C@@H](O)c2cc(-c3ncnc4cc(N5CCOCC5)ccc34)c(F)cc2Cl)nn1 + NC1CCC(NC2CC2c2ccccc2)CC1 | label 1 |
| CC1COCCN1c1cc(C2(S(C)(=N)=O)CC2)nc(-c2ccnc3[nH]ccc23)n1 (stereo not given) + NC1CCC(NC2CC2c2ccccc2)CC1 | label 1 |
| O=C(c1cc(Cc2n[nH]c(=O)c3ccccc23)ccc1F)N1CCN(C(=O)C2CC2)CC1 + NC1CCC(NC2CC2c2ccccc2)CC1 | label 0 |
| CC(C)c1c(-c2ccccc2)nc2c(C#N)c[nH]n2c1=O + NC1CC1c1ccc(-c2cccc(O)c2)cc1 | label 0 |
| COc1ccc([C@@H](O)c2cc(-c3ncnc4cc(N5CCOCC5)ccc34)c(F)cc2Cl)nn1 + NC1CC1c1ccc(-c2cccc(O)c2)cc1 | label 0 |
| CC(C)c1c(-c2ccccc2)nc2c(C#N)c[nH]n2c1=O + NC1CCC(NC2CC2c2ccccc2)CC1 | label 0 |
| CC1(C)CCC(CN2CCN(c3ccc(C(=O)NS(=O)(=O)c4ccc(NCC5CCOCC5)c([N+](=O)[O-])c4)c(Oc4cnc5[nH]ccc5c4)c3)CC2)=C(c2ccc(Cl)cc2)C1 + NC1CC1c1ccc(-c2cccc(O)c2)cc1 | label 1 |
| CC1COCCN1c1cc(C2(S(C)(=N)=O)CC2)nc(-c2ccnc3[nH]ccc23)n1 (stereo not given) + NC1CC1c1ccc(-c2cccc(O)c2)cc1 | label 1 |
| O=C(c1cc(Cc2n[nH]c(=O)c3ccccc23)ccc1F)N1CCN(C(=O)C2CC2)CC1 + NC1CC1c1ccc(-c2cccc(O)c2)cc1 | label 0 |
| CC1(C)CCC(CN2CCN(c3ccc(C(=O)NS(=O)(=O)c4ccc(NCC5CCOCC5)c([N+](=O)[O-])c4)c(Oc4cnc5[nH]ccc5c4)c3)CC2)=C(c2ccc(Cl)cc2)C1 + NC1CCC(NC2CC2c2ccccc2)CC1 | label 0 |
